experiment-notes: Pharmacokinetics in SD (Sprague Dawley) rats
Type: in vivo
condition-notes: rat, plasma, iv, female SD rats, i.v. 1 mg/kg
value-kind: AUC(0-inf) (ng·h/mL)

COc1ccc2c(c1S(=O)(=O)Nc1noc3cc(Cn4cccn4)c(F)c(OC)c13)OCCCO2 :: 39200

P = COc1ccc2c(c1S(=O)(=O)Nc1noc3cc(Cn4cccn4)c(F)c(OC)c13)OCC=C2
Q = COc1ccc2c(c1S(=O)(=O)Nc1noc3cc(Cn4cccn4)c(F)c(OC)c13)OCCO2
R = COc1ccc2c(c1S(=O)(=O)Nc1noc3cc(Cn4cccn4)c(F)c(OC)c13)OCCN2C
Ascending sort, AUC(0-inf). List each label, following the requested order.
Q, P, R
(Q: 22600 ng·h/mL, P: 48100 ng·h/mL, R: 90700 ng·h/mL)

Reference for the values: patent US20260174778A1
